The entries below are paired with their reported Ki.
- targetOfAssay: 5-hydroxytryptamine receptor 1A (Rattus norvegicus)
- Sequence (P19327 whole entry): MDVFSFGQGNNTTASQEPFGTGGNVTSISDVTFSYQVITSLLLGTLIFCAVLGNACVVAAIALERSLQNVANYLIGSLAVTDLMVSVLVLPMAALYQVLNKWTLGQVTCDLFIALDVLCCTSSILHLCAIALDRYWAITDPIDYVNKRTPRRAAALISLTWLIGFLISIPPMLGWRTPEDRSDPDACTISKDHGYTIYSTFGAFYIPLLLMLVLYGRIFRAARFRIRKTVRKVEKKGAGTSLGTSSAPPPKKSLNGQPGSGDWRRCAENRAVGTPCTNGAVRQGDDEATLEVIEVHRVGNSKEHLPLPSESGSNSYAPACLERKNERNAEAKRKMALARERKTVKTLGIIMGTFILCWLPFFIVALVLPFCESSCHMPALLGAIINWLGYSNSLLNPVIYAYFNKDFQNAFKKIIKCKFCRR

Illustrative cases are given below, each with its answer.
{"columns": ["compound", "valueReported"],
 "data": [
  ["O=C(NC1CN2CCC1CC2)c1cccc2nc(CN3CCN(c4cccc(C(F)(F)F)c4)CC3)[nH]c12 (stereo unspecified)", "> 10000 nM"],
  ["O=C(NC1CN2CCC1CC2)c1cccc2nc(CN3CCN(c4ccccc4)CC3)[nH]c12 (stereo unspecified)", "> 1000 nM"],
  ["O=C(NC1CN2CCC1CC2)c1cccc2[nH]c(CN3CCN(c4ccc5c(c4)OCO5)CC3)nc12 (stereo unspecified)", "467 nM"],
  ["CCCOc1ccccc1N1CCN(Cc2nc3c(C(=O)NC4CN5CCC4CC5)cccc3[nH]2)CC1 (stereo unspecified)", "56.1 nM"],
  ["O=C(NC1CN2CCC1CC2)c1cccc2[nH]c(CN3CCN(c4cccc5ccccc45)CC3)nc12 (stereo unspecified)", "> 1000 nM"]
]}

Turning to the following compound.
QUERY: If you can, please state the reported Ki value of O=C(NC1CN2CCC1CC2)c1cccc2nc(CN3CCN(c4cccc5nc[nH]c45)CC3)[nH]c12 (stereo unspecified) .
RESULT: 148 nM

Ref: ChEMBL document CHEMBL1136226
